# assayExplanation: tissue concentrations after intraperitoneal injection into a live rat
# Format: in vivo
# reportedConditions: myocardium, ip, 6 mg i.p., 5 min, read-out: Concentration of compound 188 in tissue samples (μM) myocardium
valueType: concentration at 5 min (µM)

1) O=C1c2ccsc2N=C2N(c3ccc(N4CCOCC4)cc3)CCC12O (stereo not shown): 36

* * *

# experimentalSystem: recombinant human non-muscle myosin 2 NM2A (Homo sapiens, UniProt P35579)
# Sequence (P35579 whole entry): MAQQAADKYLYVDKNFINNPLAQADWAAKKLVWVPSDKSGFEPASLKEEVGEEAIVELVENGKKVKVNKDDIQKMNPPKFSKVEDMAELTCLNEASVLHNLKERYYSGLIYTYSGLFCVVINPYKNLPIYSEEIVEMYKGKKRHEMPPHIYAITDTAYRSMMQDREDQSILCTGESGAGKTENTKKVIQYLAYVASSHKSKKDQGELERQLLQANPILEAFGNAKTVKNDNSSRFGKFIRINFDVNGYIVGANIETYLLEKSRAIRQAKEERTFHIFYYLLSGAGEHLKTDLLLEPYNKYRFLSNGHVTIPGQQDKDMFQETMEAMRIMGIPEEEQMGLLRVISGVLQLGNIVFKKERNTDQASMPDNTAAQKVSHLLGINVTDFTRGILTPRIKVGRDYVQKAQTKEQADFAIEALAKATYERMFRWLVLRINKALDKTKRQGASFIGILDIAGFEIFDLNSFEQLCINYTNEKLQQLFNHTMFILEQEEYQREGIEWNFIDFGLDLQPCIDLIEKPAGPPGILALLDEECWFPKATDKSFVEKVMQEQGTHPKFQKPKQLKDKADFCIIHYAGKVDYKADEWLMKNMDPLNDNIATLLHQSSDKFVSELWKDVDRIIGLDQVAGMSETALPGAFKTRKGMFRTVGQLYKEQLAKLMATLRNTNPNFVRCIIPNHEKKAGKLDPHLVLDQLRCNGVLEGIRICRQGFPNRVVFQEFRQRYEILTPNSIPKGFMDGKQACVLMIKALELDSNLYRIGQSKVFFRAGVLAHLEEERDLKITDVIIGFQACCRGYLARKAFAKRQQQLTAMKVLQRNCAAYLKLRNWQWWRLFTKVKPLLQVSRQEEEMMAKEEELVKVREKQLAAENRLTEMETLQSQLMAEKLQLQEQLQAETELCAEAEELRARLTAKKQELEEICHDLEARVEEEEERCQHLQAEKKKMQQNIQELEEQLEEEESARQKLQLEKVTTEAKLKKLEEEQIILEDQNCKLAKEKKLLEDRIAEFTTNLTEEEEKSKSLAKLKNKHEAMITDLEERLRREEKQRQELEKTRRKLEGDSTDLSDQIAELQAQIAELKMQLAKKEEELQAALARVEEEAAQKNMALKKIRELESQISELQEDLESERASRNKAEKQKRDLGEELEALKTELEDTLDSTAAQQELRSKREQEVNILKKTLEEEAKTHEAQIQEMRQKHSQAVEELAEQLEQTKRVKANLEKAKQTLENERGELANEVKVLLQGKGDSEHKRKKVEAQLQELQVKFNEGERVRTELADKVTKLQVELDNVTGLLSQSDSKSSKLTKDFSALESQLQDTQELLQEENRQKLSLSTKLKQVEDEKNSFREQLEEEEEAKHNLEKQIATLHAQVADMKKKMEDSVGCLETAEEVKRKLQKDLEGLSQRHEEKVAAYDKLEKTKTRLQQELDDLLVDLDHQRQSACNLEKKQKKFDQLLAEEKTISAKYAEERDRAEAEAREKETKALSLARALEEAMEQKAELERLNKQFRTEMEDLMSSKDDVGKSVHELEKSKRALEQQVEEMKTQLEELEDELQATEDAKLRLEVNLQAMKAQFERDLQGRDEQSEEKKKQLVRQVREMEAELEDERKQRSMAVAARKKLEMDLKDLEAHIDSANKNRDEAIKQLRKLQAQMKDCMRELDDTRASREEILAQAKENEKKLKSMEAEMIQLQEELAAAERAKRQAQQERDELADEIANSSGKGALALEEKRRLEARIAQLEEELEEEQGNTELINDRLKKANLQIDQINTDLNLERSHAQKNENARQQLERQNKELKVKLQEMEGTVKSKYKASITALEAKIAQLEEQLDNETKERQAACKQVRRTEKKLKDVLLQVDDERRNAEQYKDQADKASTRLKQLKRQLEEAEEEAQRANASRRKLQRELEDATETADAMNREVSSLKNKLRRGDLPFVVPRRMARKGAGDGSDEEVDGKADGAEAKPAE
# assayExplanation: actomyosin steady state ATPase measurement, NM2A
# Type: biochemical
# reportedConditions: read-out: % inhibition at 50 μM (or 100 μM if racemate) NM2A; 50 μM (100 μM if racemate); ATPase activity
valueType: inhibition at 50 µM (%)

1. O=C1c2ncccc2N=C2N(c3ccccc3)CCC12O (stereo not shown): 15
2. N#Cc1ccc(N2CC[C@@]3(O)C(=O)c4ccsc4N=C23)cc1: 51
3. O=C1c2ccsc2N=C2N(c3ccc(N4CCOCC4)cc3)CCC12O (stereo not shown): 9
4. Cc1cc2c(s1)N=C1N(c3cccs3)CC[C@@]1(O)C2=O: 78
5. O=C1c2cccnc2N=C2N(c3ccccc3)CCC12O (stereo not shown): 7
6. CC(=O)c1ccc(N2CC[C@@]3(O)C(=O)c4ccsc4N=C23)cc1: 31
7. Cc1cc2c(s1)N=C1N(c3ccc(N4CCOCC4)cc3)CCC1(O)C2=O (stereo not shown): 22
8. Nc1ccc(N2CC[C@@]3(O)C(=O)c4ccsc4N=C23)cc1: 14
9. O=C1c2ccncc2N=C2N(c3ccccc3)CCC12O (stereo not shown): 9
10. O=C1c2sccc2N=C2N(c3ccccc3)CCC12O (stereo not shown): 37
11. O=C1c2ccsc2N=C2N(c3ccccc3)CCC12O (stereo not shown): 44
12. Cc1cc2c(s1)N=C1N(c3ccccc3)CCC1(O)C2=O (stereo not shown): 79
13. COc1ccc(N2CC[C@@]3(O)C(=O)c4ccsc4N=C23)cc1: 69

* * *

# experimentalSystem: isolated porcine cardiac ventricular myocardium (cardiac) (Sus scrofa)
# Construct: isolated porcine cardiac ventricular myocardium (cardiac); from tissue; host or cells: porcine cardiac ventricle
# Sequence (P79293 whole entry): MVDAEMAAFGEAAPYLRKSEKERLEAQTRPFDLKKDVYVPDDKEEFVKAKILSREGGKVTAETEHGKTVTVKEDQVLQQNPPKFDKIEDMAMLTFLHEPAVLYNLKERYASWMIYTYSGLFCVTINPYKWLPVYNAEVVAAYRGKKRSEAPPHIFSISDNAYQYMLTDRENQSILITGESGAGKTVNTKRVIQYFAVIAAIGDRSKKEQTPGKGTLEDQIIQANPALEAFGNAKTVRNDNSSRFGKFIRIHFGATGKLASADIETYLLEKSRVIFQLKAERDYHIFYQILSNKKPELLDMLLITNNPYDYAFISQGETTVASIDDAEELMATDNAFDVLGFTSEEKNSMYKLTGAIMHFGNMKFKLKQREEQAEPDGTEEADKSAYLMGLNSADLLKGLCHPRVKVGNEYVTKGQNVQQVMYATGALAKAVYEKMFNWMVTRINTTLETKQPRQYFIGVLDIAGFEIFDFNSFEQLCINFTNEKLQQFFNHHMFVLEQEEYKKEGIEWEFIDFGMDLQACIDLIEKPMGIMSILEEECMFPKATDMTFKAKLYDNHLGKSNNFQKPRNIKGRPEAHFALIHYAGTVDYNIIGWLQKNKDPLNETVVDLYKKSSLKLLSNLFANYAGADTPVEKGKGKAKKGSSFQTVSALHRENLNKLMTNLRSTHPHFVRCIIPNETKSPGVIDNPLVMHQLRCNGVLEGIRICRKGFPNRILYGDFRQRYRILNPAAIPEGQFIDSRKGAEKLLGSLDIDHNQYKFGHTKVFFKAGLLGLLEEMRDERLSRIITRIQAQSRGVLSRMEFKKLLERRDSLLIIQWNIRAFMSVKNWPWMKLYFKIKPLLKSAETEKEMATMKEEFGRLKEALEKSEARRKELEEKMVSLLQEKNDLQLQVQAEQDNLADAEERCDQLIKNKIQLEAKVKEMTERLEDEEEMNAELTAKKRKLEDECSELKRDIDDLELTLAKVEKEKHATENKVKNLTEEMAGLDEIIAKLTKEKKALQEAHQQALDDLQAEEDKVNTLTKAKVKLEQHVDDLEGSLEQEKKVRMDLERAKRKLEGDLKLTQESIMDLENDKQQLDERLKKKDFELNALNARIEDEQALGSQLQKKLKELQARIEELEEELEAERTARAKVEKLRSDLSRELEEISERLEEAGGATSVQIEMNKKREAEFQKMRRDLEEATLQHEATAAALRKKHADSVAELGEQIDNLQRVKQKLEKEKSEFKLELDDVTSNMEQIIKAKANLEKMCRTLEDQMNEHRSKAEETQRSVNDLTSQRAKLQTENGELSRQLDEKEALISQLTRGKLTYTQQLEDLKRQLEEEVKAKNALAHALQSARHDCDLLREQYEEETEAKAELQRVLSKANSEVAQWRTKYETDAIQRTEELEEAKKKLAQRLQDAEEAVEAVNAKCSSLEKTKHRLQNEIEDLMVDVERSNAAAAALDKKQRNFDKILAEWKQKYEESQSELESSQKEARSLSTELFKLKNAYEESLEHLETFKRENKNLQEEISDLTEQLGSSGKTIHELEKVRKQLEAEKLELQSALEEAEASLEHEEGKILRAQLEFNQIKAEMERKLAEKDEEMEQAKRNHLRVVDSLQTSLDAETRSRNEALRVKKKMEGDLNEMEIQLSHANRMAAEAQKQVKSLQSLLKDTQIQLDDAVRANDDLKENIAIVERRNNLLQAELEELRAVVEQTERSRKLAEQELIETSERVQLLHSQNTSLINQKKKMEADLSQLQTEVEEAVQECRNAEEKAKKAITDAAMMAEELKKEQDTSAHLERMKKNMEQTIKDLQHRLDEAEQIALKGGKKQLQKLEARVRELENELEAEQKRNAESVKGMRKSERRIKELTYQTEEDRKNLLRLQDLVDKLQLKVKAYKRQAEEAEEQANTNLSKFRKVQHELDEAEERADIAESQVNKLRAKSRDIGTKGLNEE
# assayExplanation: actomyosin steady state ATPase measurement, cardiac myosin
# Format: biochemical
# reportedConditions: read-out: % inhibition at 5 μM (or 10 μM if racemate) cardiac; 5 μM (10 μM if racemate); ATPase activity
valueType: inhibition at 5 µM

1) O=C1c2ccncc2N=C2N(c3ccc(N4CCOCC4)cc3)CCC12O (stereo not drawn) [Compound 248]: 4%
2) Cc1nsc2c1C(=O)C1(O)CCN(c3ccccc3)C1=N2 (stereo not drawn) [Compound 206]: 16%
3) CN(C)c1ccc(N2CC[C@@]3(O)C(=O)c4ccsc4N=C23)cc1 [Compound 249]: 11%
4) Cc1cc2c(s1)N=C1N(c3ccc(CO)cc3)CCC1(O)C2=O (stereo not drawn) [Compound 227]: 77%
5) O=C1c2ccsc2N=C2N(c3cccs3)CC[C@@]12O [Compound 218]: 49%
6) O=C1c2ccncc2N=C2NCCC12O (stereo not drawn) [Compound 255]: 7%
7) N#CCc1ccc(N2CC[C@@]3(O)C(=O)c4ccsc4N=C23)cc1 [Compound 215]: 42%
8) Cc1cc2c(s1)N=C1N(c3ccc(N4CCOCC4)cc3)CCC1(O)C2=O (stereo not drawn) [Compound 220]: 17%
9) COc1ccc(N2CCC3(O)C(=O)c4cc(C)sc4N=C23)cc1 (stereo not drawn) [Compound 222]: 82%
